This collection of values is drawn from the supplement of paper PMC11451515.

# System: NOMO1
# experiment_summary: cell viability relative to DMSO control; higher = less cytotoxic
# condition_notes: HPLM + 10% dialyzed FBS; 48 h; 0.00702 µM
measurement_kind: cell viability (%)
Numbers only, in %.

Reference set, count: 3
{"molecule": "CC/1=C(/N2[C@H](SC1)[C@H](NC(=O)C(N)C3=CC=CC=C3)C2=O)C(O)=O (some centres not stated)", "cell viability (%)": 118}
{"molecule": "Cc1ncc([N+](=O)[O-])n1CC(C)O (configuration not stated)", "cell viability (%)": 117}
{"molecule": "Nc1nc(Cl)nc2c1ncn2[C@@H]1O[C@H](CO)[C@@H](O)[C@@H]1F", "cell viability (%)": 43.4}

Parameter requested: cell viability. Apply to each item below.
1. OCCn1cc(-c2cnc3nnn(Cc4ccc5ncccc5c4)c3n2)cn1
2. CC(C)Oc1ccc(C(=O)N[C@H](CNC(=O)CN(C)C)Cc2ccc(-c3cn4cccc([C@H](C)O)c4n3)cc2)cc1Cl
3. Cc1ccc2c(c1)c1c(n2CCc2ccc(C)nc2)CCN(C)C1
4. CON(C)C(=O)N1/N=C(S[C@@]1(CCCN)C2=CC=CC=C2)/C3=CC(=CC=C3F)F

[123, 108, 111, 117]

---

# Tested on: P12-Ichikawa
# experiment_summary: cell viability relative to DMSO control; higher = less cytotoxic
# condition_notes: RPMI 5 mM glucose + 10% dialyzed FBS; 48 h; 5.12 µM
Answer each item with its documented cell viability.
Numbers only, in %.

Reference set, count: 5
{"molecule": "C[C@]12CC[C@H]3[C@@H](CCC/4=C/C(=O)CC[C@]34C)[C@@H]1CC[C@@H]2OC(=O)CCC5CCCC5", "cell viability [%]": 104}
{"molecule": "NC/1=N/C(=O)N(/C=N1)[C@@H]2O[C@H](CO)[C@@H](O)[C@H]2O", "cell viability [%]": 89.6}
{"molecule": "CO/N=C(/C(=O)N[C@@H]1C(=O)N2C(C(=O)O)=C(CSC(=O)c3ccco3)CS[C@H]12)c1csc(N)n1", "cell viability [%]": 102}
{"molecule": "C=CCc1ccc(O)c(-c2ccc(O)c(CC=C)c2)c1", "cell viability [%]": 18.4}
{"molecule": "C1CCN2C[C@H]3C[C@H](\\C=C/4CCCN[C@@H]34)[C@H]2C1", "cell viability [%]": 112}

Parameter requested: cell viability. Apply to each item below.
1. CCOC(=O)/C=C/[C@H](C[C@@H]1CCNC1=O)NC(=O)[C@@H](CC(=O)[C@@H](NC(=O)c1cc(C)on1)C(C)C)Cc1ccc(F)cc1
2. N#C/C(C(=O)c1ccc(Cl)cc1Cl)=C1/NC(=O)c2ccc(Cl)cc2N1
3. OC(CN1CCN(c2cccc(Cl)c2)CC1)C(c1ccccc1)c1ccccc1 (stereo not drawn)

119
97.8
5.14

---

# Tested on: SEM cells
# experiment_summary: cell viability relative to DMSO control; higher = less cytotoxic
# condition_notes: RPMI 5 mM glucose + 10% dialyzed FBS; 48 h; 0.569 µM
Answer each item with its documented cell viability.
One number for each entry, in %.

Reference set, count: 10
{"compound": "Cc1onc(-c2ccccc2)c1C(=O)N[C@@H]1C(=O)N2[C@@H]1SC(C)(C)[C@@H]2C(=O)[O-].[Na+]", "test_target": "SEM cells", "observed": 118}
{"compound": "CN1CCN(CCCN2c3ccccc3Sc3ccc(C(F)(F)F)cc32)CC1", "test_target": "SEM cells", "observed": 92.7}
{"compound": "C1CCN2C[C@H]3C[C@H](\\C=C/4CCCN[C@@H]34)[C@H]2C1", "test_target": "SEM cells", "observed": 103}
{"compound": "O=C(/C=C/c1ccc(O)cc1)c1ccc(O)cc1O", "test_target": "SEM cells", "observed": 100}
{"compound": "CC(C)(O)/C=C\\C(=O)[C@](C)(O)[C@H]1[C@H](O)C[C@]2(C)[C@@H]3CC=C4[C@@H](C=C(O)C(=O)C4(C)C)[C@]3(C)C(=O)C[C@@]12C", "test_target": "SEM cells", "observed": 14.2}
{"compound": "CC(=O)[C@]1(O)Cc2c(O)c3c(c(O)c2[C@@H](O[C@H]2C[C@H](N)[C@H](O)[C@H](C)O2)C1)C(=O)c1ccccc1C3=O", "test_target": "SEM cells", "observed": 90.3}
{"compound": "COc1cc(/C=C/C(=O)O)ccc1O", "test_target": "SEM cells", "observed": 109}
{"compound": "COc1cccc2c1CCCC2CCCN1CCN(C2CCCCC2)CC1 (stereo not given)", "test_target": "SEM cells", "observed": 104}
{"compound": "CC/1=C(/N2[C@H](SC1)[C@H](NC(=O)C(N)C3=CC=CC=C3)C2=O)C(O)=O (stereo not given in full)", "test_target": "SEM cells", "observed": 132}
{"compound": "COC(=O)\\C1=C\\CCN(C)C1", "test_target": "SEM cells", "observed": 114}

Parameter requested: cell viability. Apply to each item below.
1. OC1=CC2=C(C(=C1)O)C(=O)\C(=C(/O2)C3=CC(=C(O)C=C3)O)O
2. NC(=O)OCC(COC(N)=O)c1ccccc1
3. COc1cccc2c1[C@]13CCN(CC4CC4)[C@H](C2)[C@]1(OC)CCC(=O)C3
4. CC(C)Oc1ccc(C(=O)N[C@H](CNC(=O)CN(C)C)Cc2ccc(-c3cn4cccc([C@H](C)O)c4n3)cc2)cc1Cl
5. CCOC(=O)Nc1ccc(NCc2ccc(F)cc2)nc1N
6. CC(C)C[C@H](NC(=O)[C@@H](O)[C@H](N)Cc1ccccc1)C(=O)O
7. Nc1nc(Cl)nc2c1ncn2[C@@H]1O[C@H](CO)[C@@H](O)[C@@H]1F

1. 115
2. 109
3. 84.6
4. 111
5. 138
6. 127
7. 10.8

Parameter requested: cell viability. Apply to each item below.
1. CN1CCN(C(=O)O[C@H]2c3nccnc3C(=O)N2c2ccc(Cl)cn2)CC1
2. COC1=CC=C2/C3=N/CCN3\C(=N/C2=C1OC)NC(=O)C4=CC=CN=C4
3. COc1cc(C(=O)NS(=O)(=O)c2ccccc2C)ccc1Cc1cn(C)c2ccc(NC(=O)OC3CCCC3)cc12

1: 110; 2: 99; 3: 62.4

---

# System: P12-Ichikawa
# experiment_summary: cell viability relative to DMSO control; higher = less cytotoxic
# condition_notes: HPLM + 10% dialyzed FBS; 48 h; 46.1 µM
measurement_kind: cell viability (%)
Answers are plain numbers, in %.

{"compound": "CCN(c1ccccc1)c1cc(NC)[n+](C)c(C)n1", "cell viability [%]": 101}
{"compound": "CC(C)(O)/C=C\\C(=O)[C@](C)(O)[C@H]1[C@H](O)C[C@]2(C)[C@@H]3CC=C4[C@@H](C=C(O)C(=O)C4(C)C)[C@]3(C)C(=O)C[C@@]12C", "cell viability [%]": 4.2}
{"compound": "N#C[C@H](O[C@@H]1O[C@H](CO[C@@H]2O[C@H](CO)[C@@H](O)[C@H](O)[C@H]2O)[C@@H](O)[C@H](O)[C@H]1O)c1ccccc1", "cell viability [%]": 55.4}

Parameter requested: cell viability. Apply to each item below.
1. CCOC(=O)\C1=C\[C@@H](OC(CC)CC)[C@H](NC(C)=O)[C@@H](N)C1
2. CC(C)[C@H](N)C(=O)OCCOC[N]1C=NC2=C1\N=C(N)/NC2=O
3. CCOC1=CC=CC=C1N\2C(=O)C3=C(C=CC=C3)\N=C2C(C)N4CCN(CC4)C(=O)COC5=CC=C(Cl)C=C5 (stereo not drawn)
4. C[C@](N)(Cc1ccc(O)c(O)c1)C(=O)O
5. CCCC1OC2C[C@H]3[C@@H]4CCC5=CC(=O)C=C[C@]5(C)[C@H]4C(O)C[C@]3(C)[C@]2(C(=O)CO)O1 (stereo partly drawn)

94.9
119
4.74
84.8
49

---

# System: P12-Ichikawa
# experiment_summary: cell viability relative to DMSO control; higher = less cytotoxic
# condition_notes: RPMI 5 mM glucose + 10% FBS; 48 h; 0.569 µM
measurement_kind: cell viability (%)
Numbers only, in %.

Reference set, count: 3
{"compound": "CCOC(=O)Nc1ccc(NCc2ccc(F)cc2)nc1N", "observed": 110}
{"compound": "CN(C)CCN1C(=O)c2cccc3cc(N)cc(c23)C1=O", "observed": 125}
{"compound": "Cc1c[nH]c(-c2cnc(NCCNc3ccc(C#N)cn3)nc2-c2ccc(Cl)cc2Cl)n1", "observed": 78.9}

Parameter requested: cell viability. Apply to each item below.
1. OCCn1cc(-c2cnc3nnn(Cc4ccc5ncccc5c4)c3n2)cn1
2. CCOC(=O)\C1=C\[C@@H](OC(CC)CC)[C@H](NC(C)=O)[C@@H](N)C1
3. N#C/C(C(=O)c1ccc(Cl)cc1Cl)=C1/NC(=O)c2ccc(Cl)cc2N1
4. OC[C@H]1O[C@@H]2[C@@H](OC\3=N\C(=N)\C=C/[N@@]23)[C@@H]1O

1. 115
2. 95.7
3. 107
4. 22.5

Parameter requested: cell viability. Apply to each item below.
1. CN1CCN(C(=O)O[C@H]2c3nccnc3C(=O)N2c2ccc(Cl)cn2)CC1
2. Cc1nc(Nc2n[nH]c3c2CN(C(=O)N[C@H](CN(C)C)c2ccccc2)C3(C)C)c2sccc2n1
3. Cc1noc(-c2ccc(CSCCC(=O)O)cc2)c1NC(=O)OC(C)c1ccccc1Cl (stereo not given)
4. COc1ncc(-c2ccc3c(Nc4cc(Oc5cc(F)cc(F)c5)cc(C(=O)O)c4)c([S+](=O)([O-])NC4CC4)cnc3c2)c(OC)n1
5. C1CCN2C[C@H]3C[C@H](\C=C/4CCCN[C@@H]34)[C@H]2C1
6. CC(C)Cc1ccc(C(C)C(=O)O)cc1 (stereo not given)

1: 103; 2: 53.4; 3: 97.3; 4: 82.2; 5: 122; 6: 81.8

Parameter requested: cell viability. Apply to each item below.
1. O=C1NC(=O)/C(=C/c2ccc(-c3ccc(F)cc3O)o2)S1
2. CCOC(=O)/C=C/[C@H](C[C@@H]1CCNC1=O)NC(=O)[C@@H](CC(=O)[C@@H](NC(=O)c1cc(C)on1)C(C)C)Cc1ccc(F)cc1
3. CC/1=C(\O)C(=O)\C=C2/C1=C/C=C3\[C@@]2(C)CC[C@@]4(C)[C@@H]5C[C@@](C)(CC[C@]5(C)CC[C@]34C)C(O)=O
4. CCN1CCN(C(=O)Cc2ccc(Nc3ncc(F)c(Nc4ccc(C(=O)Nc5ccccc5Cl)cc4)n3)cc2)CC1
5. Cc1cccc(/C=N/Nc2cc(N3CCOCC3)nc(OCCc3ccccn3)n2)c1
6. CC1(C)C(N(O)C(=O)Nc2ccc(Cl)cc2)N(c2ccc(Cl)cc2)C(=O)N1CC(=O)N/N=C/C=C/c1ccc([N+](=O)[O-])o1 (stereo not given)
7. CN1CCN(CCCN2c3ccccc3Sc3ccc(C(F)(F)F)cc32)CC1

1. 102
2. 134
3. 106
4. 111
5. 79.5
6. 110
7. 113

Parameter requested: cell viability. Apply to each item below.
1. CON(C)C(=O)N1/N=C(S[C@@]1(CCCN)C2=CC=CC=C2)/C3=CC(=CC=C3F)F
2. CC(C)(O)c1cc2nc(-c3cnc(N)nc3)nc(N3CCOCC3)c2s1
3. N#C/N=C(\NCCCCCCOc1ccc(Cl)cc1)Nc1ccncc1
4. CC(C)(C)[C@H](NC(=O)c1ccc(N)c(Cl)c1)C(=O)N1CCC[C@H]1C(=O)N[C@H](C#N)CC(=O)O
5. Cn1cc(C[C@@H](N)C(=O)O)c2ccccc21

14.3
81.8
8.18
133
107
